Measured pIC50 of individual entries
- Tested on: NCI-H1299 cells
- assay-explanation: CCK-8 assay, NCI-H1299 cells
- Assay type: cell-based, human
- cond: Homo sapiens, NCI-H1299; CCK-8, 48 h, mean ± SD, n = 3
pIC50: −log10 of the molar value.
measure: pIC50

> print(dat)
                                   compound  measure  readout.value
1  COc1cc2ncnc(Nc3cccc(-c4cn(-c5ccccc5Cl)nn4)c3)c2cc1OCCCN1CCOCC1 [Compound 4h]    pIC50           5.11
2  COc1cc2ncnc(Nc3cccc(-c4cn(-c5ccccc5Br)nn4)c3)c2cc1OCCCN1CCOCC1 [Compound 4e]    pIC50           4.93
3  COc1cc2ncnc(Nc3cccc(-c4cn(Cc5ccccc5Br)nn4)c3)c2cc1OCCCN1CCOCC1 [Compound 4b]    pIC50           5.35
4  COc1cc2ncnc(Nc3cccc(-c4cn(-c5ccc(Cl)cc5)nn4)c3)c2cc1OCCCN1CCOCC1 [Compound 4d]    pIC50           4.94
